# EXPERIMENTAL SYSTEM: Epidermal growth factor receptor (Homo sapiens) (UniProt P00533)
# Sequence (P00533 whole entry): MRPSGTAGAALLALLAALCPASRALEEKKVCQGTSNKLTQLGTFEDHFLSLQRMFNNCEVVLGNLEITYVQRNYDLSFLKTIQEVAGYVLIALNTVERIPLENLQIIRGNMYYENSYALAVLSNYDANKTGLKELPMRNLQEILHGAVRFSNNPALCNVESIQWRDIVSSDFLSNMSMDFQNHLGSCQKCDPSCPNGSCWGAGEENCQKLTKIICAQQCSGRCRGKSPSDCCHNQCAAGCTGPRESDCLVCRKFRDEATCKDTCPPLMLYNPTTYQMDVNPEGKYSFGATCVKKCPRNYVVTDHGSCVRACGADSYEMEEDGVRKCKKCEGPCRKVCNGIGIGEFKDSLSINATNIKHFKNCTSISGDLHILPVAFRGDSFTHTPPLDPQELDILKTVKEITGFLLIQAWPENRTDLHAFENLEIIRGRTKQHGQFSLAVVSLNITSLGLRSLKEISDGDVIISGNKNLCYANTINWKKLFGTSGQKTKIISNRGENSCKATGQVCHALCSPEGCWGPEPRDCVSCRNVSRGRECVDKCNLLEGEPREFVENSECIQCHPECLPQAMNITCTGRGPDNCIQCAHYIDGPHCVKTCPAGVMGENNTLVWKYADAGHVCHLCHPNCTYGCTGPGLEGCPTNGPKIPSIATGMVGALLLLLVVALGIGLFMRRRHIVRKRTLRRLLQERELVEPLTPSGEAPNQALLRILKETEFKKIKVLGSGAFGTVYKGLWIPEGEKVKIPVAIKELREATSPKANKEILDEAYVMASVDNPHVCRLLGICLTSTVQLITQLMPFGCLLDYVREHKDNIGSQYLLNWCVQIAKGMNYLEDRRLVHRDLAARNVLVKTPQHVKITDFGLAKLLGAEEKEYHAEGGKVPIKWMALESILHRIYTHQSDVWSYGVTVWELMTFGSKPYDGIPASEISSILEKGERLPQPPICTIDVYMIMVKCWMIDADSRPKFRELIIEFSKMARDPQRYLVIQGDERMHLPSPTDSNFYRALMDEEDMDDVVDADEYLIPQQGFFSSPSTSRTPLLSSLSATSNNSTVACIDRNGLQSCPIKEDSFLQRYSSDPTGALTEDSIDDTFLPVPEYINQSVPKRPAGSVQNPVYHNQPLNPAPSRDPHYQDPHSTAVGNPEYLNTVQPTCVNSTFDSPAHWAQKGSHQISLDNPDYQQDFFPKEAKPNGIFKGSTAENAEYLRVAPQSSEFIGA
# EXPERIMENTAL DETAILS: Inhibition of ErbB1 at 10 uM
# Design: scale not given: the % may be the effect or the level left
ENDPOINT LABEL: Activity

Before answering, review these 5 worked examples.
O=C(Nc1ccc(OCc2ccccc2)cc1)c1ccnn1CCc1ccncc1 :: < 30%
O=C(Nc1cccc(OC(F)(F)F)c1)c1ccnn1CCc1ccncc1 :: < 30%
O=C(Nc1ccc(Cl)cc1)c1ccnn1CCc1ccncc1 :: < 30%
O=C(Nc1ccc(C(F)(F)F)c(Cl)c1)c1nc2ccccc2n1CCc1ccncc1 :: < 30%
CC(C)(C)c1ccc(NC(=O)c2ccnn2CCc2ccncc2)cc1 :: < 30%

Lookup: Activity / Epidermal growth factor receptor (Homo sapiens) (UniProt P00533) / O=C(Nc1ccc(Cl)c(C(F)(F)F)c1)c1ccnn1CCc1ccncc1
< 30%

====

# EXPERIMENTAL SYSTEM: Vascular endothelial growth factor receptor 2 (Homo sapiens, UniProt P35968)
# Sequence (P35968 whole entry): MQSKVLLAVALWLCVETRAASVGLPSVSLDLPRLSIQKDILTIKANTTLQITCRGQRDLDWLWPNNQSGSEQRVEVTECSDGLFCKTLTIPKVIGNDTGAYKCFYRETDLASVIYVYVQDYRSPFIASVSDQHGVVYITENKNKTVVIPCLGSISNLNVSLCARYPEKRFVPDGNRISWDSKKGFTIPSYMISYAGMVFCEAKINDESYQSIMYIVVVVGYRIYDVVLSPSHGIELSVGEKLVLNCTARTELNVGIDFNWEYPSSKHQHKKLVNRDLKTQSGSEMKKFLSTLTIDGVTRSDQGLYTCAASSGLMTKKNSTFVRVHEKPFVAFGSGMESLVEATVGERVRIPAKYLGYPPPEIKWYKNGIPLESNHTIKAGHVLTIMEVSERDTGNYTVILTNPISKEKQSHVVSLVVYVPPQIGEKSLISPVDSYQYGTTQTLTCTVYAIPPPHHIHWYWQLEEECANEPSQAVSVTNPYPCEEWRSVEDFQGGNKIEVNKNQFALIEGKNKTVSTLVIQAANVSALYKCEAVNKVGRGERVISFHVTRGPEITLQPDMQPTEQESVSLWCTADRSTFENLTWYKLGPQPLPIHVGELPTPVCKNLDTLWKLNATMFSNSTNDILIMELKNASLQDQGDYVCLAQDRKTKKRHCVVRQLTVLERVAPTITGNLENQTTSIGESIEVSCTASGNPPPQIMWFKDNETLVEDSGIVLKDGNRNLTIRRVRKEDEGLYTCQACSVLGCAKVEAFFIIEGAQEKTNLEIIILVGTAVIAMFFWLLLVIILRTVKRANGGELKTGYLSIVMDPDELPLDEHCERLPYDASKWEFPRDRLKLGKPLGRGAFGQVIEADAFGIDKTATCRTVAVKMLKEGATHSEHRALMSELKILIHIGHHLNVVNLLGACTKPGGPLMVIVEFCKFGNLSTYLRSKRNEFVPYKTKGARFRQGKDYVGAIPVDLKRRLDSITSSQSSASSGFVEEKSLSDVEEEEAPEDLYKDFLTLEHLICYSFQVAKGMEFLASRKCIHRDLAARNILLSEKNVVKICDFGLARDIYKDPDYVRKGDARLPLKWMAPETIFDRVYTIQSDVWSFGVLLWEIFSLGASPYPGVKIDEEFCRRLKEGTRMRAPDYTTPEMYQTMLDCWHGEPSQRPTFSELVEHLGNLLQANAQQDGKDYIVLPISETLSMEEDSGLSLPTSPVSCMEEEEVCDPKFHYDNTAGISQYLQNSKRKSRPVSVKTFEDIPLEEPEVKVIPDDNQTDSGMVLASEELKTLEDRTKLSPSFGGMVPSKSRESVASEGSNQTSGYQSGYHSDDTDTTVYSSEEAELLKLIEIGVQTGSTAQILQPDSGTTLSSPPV
# EXPERIMENTAL DETAILS: Inhibition of VEGFR2 assessed as inhibition of phosphorylation in presence of 2 uM ATP by HTRF assay
# Format: functional
ENDPOINT LABEL: Ki (nM)
Numbers only, in nM.

O=C(Nc1ccc(C(F)(F)F)c(Cl)c1)c1ccnn1CCc1ccncc1 :: 170

Each compound below has a reported value. Please supply its Ki.
1. CC(C)(C)c1ccc(NC(=O)c2ccnn2CCc2ccncc2)cc1
2. O=C(Nc1ccc(OC(F)(F)F)cc1)c1ccnn1CCc1ccncc1

1: 130; 2: 90

For every item below, please supply its Ki.
1. O=C(Nc1ccc(Cl)cc1)c1ccnn1CCc1ccncc1
2. O=C(Nc1cccc(OC(F)(F)Cl)c1)c1ccnn1CCc1ccncc1

[110, 70]

====

Task for the reader: assign each of the following compounds its reported IC50.
# EXPERIMENTAL SYSTEM: Vascular endothelial growth factor receptor 2 (Homo sapiens, UniProt P35968)
# EXPERIMENTAL DETAILS: Inhibition of VEGFR2 assessed as inhibition of phosphorylation in human 293 cells by cell-based ELISA
# Format: functional, HEK293

# annotated cases, reported IC50 shown
O=C(Nc1ccc(Cl)cc1)c1ccnn1CCc1ccccn1 :: > 10 µM
CCc1ccc(NC(=O)c2ccnn2CCc2ccncc2)cc1 :: 0.086 µM
COc1ccc(CCn2nccc2C(=O)Nc2ccc(Cl)cc2)cc1OC :: > 10 µM

Consider the record given below.
What IC50 appears in the records for this compound with Vascular endothelial growth factor receptor 2 (Homo sapiens, UniProt P35968)? O=C(Nc1ccc(Cl)cc1)c1ccnn1CCc1cccnc1
> 10 µM

====

Field: pIC50. Provide a value for each of the compounds that follow.
# EXPERIMENTAL SYSTEM: Vascular endothelial growth factor receptor 1 (Homo sapiens, UniProt P17948)
# Sequence (P17948 whole entry): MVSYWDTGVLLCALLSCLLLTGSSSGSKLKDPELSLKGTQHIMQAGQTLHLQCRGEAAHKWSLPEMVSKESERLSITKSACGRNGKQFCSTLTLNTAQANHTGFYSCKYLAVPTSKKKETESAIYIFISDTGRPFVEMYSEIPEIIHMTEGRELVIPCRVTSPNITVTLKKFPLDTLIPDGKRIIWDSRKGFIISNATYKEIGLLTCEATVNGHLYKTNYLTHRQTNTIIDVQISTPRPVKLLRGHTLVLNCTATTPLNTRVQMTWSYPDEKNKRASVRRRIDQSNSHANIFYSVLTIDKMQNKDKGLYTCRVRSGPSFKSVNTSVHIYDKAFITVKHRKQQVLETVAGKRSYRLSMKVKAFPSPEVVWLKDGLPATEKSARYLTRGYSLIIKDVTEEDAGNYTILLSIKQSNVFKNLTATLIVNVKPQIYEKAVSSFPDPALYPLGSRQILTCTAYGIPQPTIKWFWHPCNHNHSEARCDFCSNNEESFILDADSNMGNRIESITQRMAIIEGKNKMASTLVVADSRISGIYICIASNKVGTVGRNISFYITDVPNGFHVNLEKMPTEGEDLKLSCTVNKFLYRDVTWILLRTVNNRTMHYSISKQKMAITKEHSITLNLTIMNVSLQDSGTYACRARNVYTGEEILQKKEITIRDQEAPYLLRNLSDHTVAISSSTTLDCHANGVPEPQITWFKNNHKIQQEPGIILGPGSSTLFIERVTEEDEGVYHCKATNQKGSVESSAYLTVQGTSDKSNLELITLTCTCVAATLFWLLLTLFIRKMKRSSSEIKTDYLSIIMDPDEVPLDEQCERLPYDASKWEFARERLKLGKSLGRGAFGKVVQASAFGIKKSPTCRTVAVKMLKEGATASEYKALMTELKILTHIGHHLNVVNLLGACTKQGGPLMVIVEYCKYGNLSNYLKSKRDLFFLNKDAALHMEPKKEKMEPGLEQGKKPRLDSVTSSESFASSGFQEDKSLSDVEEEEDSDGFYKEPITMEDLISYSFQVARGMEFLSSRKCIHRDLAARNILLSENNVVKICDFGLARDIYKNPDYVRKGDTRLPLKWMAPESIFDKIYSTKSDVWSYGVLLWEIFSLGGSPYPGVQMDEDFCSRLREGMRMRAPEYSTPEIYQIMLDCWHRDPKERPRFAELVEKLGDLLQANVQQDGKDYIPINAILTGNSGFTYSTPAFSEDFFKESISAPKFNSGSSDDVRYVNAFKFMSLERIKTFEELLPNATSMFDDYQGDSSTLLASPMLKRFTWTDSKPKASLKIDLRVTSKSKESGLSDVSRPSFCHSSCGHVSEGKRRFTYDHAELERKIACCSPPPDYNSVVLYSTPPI
# EXPERIMENTAL DETAILS: Inhibition of VEGFR1 assessed as inhibition of phosphorylation in presence of 2 uM ATP by HTRF assay
# Assay type: functional
pIC50: −log10 of the molar value.

O=C(Nc1ccc(Cl)cc1)c1nc2ccccc2n1CCc1ccncc1 :: < 5.00

Hi team, please reply with pIC50 for each item in this list.
1. O=C(Nc1ccc2cn[nH]c2c1)c1ccnn1CCc1ccncc1
2. O=C(Nc1ccc(OC(F)(F)F)cc1)c1cc2ccccc2n1CCc1ccncc1
3. O=C(Nc1ccc(C(F)(F)F)c(Cl)c1)c1nnnn1CCc1ccncc1

1. < 5.00
2. < 5.00
3. < 5.00

====

# EXPERIMENTAL SYSTEM: Vascular endothelial growth factor receptor 1 (Homo sapiens, UniProt P17948)
# EXPERIMENTAL DETAILS: Inhibition of VEGFR1 assessed as inhibition of phosphorylation in presence of 2 uM ATP by HTRF assay
ENDPOINT LABEL: pIC50
Give bare numbers, as −log10 of the molar value.

Reference set, count: 2
O=C(Nc1ccc(Cl)cc1)c1nccn1CCc1ccncc1 :: 6.03
O=C(Nc1ccc(Cl)c(Cl)c1)c1ccnn1CCc1ccncc1 :: 6.07

Consider now this further molecule.
Record request: pIC50 value, item O=C(Nc1ccc(Cl)cc1)c1nnnn1CCc1ccncc1
6.05

====

# EXPERIMENTAL SYSTEM: RAC-alpha serine/threonine-protein kinase (Homo sapiens)
# EXPERIMENTAL DETAILS: Inhibition of PKB/Akt at 10 uM
# Design: scale not given: the % may be the effect or the level left
ENDPOINT LABEL: Activity

Consider the reported Activity for these compounds:
O=C(Nc1ccc(Cl)c(C(F)(F)F)c1)c1ccnn1CCc1ccncc1 :: > 30%
O=C(Nc1ccc(OCc2ccccc2)cc1)c1ccnn1CCc1ccncc1 :: > 30%
O=C(Nc1ccc(Oc2ccccc2)cc1)c1ccnn1CCc1ccncc1 :: > 30%
O=C(Nc1ccc(Cl)cc1)c1ccnn1CCc1ccncc1 :: > 30%

Batch request: Activity per item, same order as input.
1. O=C(Nc1ccc(C(F)(F)F)cc1)c1nnnn1CCc1ccncc1
2. O=C(Nc1ccc(Cl)cc1)c1ccnn1CCc1cnoc1
3. O=C(Nc1ccc(C(F)(F)F)cc1)c1ccnn1CCc1ccncc1

1. > 30%
2. > 30%
3. > 30%

# get_value(readout='Activity', item= O=C(Nc1cccc(OC(F)(F)F)c1)c1ccnn1CCc1ccncc1 )
> 30%

====

Record form. Attribute: IC50. Fill in for each entry.
# EXPERIMENTAL SYSTEM: Vascular endothelial growth factor receptor 2 (Homo sapiens)
# EXPERIMENTAL DETAILS: Inhibition of VEGFR2 assessed as inhibition of phosphorylation in human 293 cells by cell-based ELISA
# Assay type: functional, HEK293

# count of solved cases: 2
CC(C)(C)c1ccc(NC(=O)c2nnnn2CCc2ccncc2)cc1 :: > 10 µM
O=C(Nc1ccc(C(F)(F)F)c(Cl)c1)c1nnnn1CCc1ccncc1 :: > 10 µM

Okay, here is my list. What is IC50 for each of these?
1. O=C(Nc1ccc(Cl)cc1)c1ccnn1CCc1noc2ccccc12
2. O=C(Nc1ccc(OC(F)(F)F)cc1)c1nnnn1CCc1ccncc1
3. O=C(Nc1ccc(OC(F)(F)F)cc1)c1cc2ccccc2n1CCc1ccncc1

["> 10 µM", "2.97 µM", "> 10 µM"]

====

# EXPERIMENTAL SYSTEM: Vascular endothelial growth factor receptor 2 (Homo sapiens)
# EXPERIMENTAL DETAILS: Inhibition of VEGFR2 assessed as inhibition of phosphorylation in human 293 cells by cell-based ELISA
# Assay type: functional, HEK293
ENDPOINT LABEL: IC50 (nM)
Give bare numbers, in nM.

COc1ccc(NC(=O)c2ccnn2CCc2ccncc2)cc1OC :: 90

Please state, for each entry, its recorded IC50.
1. O=C(Nc1ccc(-c2ccccc2)cc1)c1ccnn1CCc1ccncc1
2. O=C(Nc1ccc(Cl)cc1)c1nnnn1CCc1ccncc1

1: 1560; 2: 2030

====

Give measured IC50 for each item. Keep answers brief.
# EXPERIMENTAL SYSTEM: UniProt:P17948
# EXPERIMENTAL DETAILS: Inhibition of VEGFR1 assessed as inhibition of phosphorylation in presence of 2 uM ATP by HTRF assay
Answers are plain numbers, in nM.

Worked set:
O=C(Nc1cnc2ccccc2c1)c1ccnn1CCc1ccncc1 :: 380
O=C(Nc1ccc(C(F)(F)F)cc1)c1ccnn1CCc1ccncc1 :: 380
O=C(Nc1ccc(OC(F)(F)F)cc1)c1nccn1CCc1ccncc1 :: 4270
Cc1cc(C(=O)Nc2ccc(OC(F)(F)F)cc2)n(CCc2ccncc2)n1 :: 2250

Okay, now this compound:
Give the reported IC50 for O=C(Nc1ccc(C(F)(F)F)cc1)c1nccn1CCc1ccncc1 (system: UniProt:P17948).
790

====

# EXPERIMENTAL SYSTEM: Vascular endothelial growth factor receptor 2 (Homo sapiens, UniProt P35968)
# EXPERIMENTAL DETAILS: Inhibition of VEGFR2 assessed as inhibition of phosphorylation in human 293 cells by cell-based ELISA
# Format: functional, HEK293
pIC50: −log10 of the molar value.
Can you tell me pIC50 for the items I'm about to list?

Reference set, count: 6
O=C(Nc1ccc(OC(F)(F)F)cc1)c1nc2ccccc2n1CCc1ccncc1 :: < 5.00
O=C(Nc1ccc2[nH]ncc2c1)c1ccnn1CCc1ccncc1 :: < 5.00
O=C(Nc1ccc(Cl)cc1)c1ccnn1CCc1c[nH]cn1 :: < 5.00
O=C(Nc1ccc(OCc2ccccc2)cc1)c1ccnn1CCc1ccncc1 :: < 5.00
O=C(Nc1ccc(Oc2ccccc2)cc1)c1ccnn1CCc1ccncc1 :: < 5.00
O=C(Nc1ccc2cn[nH]c2c1)c1ccnn1CCc1ccncc1 :: < 5.00

Value sought for every listed compound: pIC50.
1. O=C(Nc1ccc(Cl)cc1)c1nc2ccccc2n1CCc1ccncc1
2. O=C(Nc1ccc(Cl)cc1)c1ccnn1CCc1ccc(F)c(F)c1
3. O=C(Nc1ccc(C(F)(F)F)cc1)c1nccn1CCc1ccncc1
4. Cc1nn(CCc2ccncc2)c(C(=O)Nc2ccc(OC(F)(F)F)cc2)c1C
5. O=C(Nc1ccc(C(F)(F)F)c(Cl)c1)c1ccnn1CCc1ccncc1
6. O=C(Nc1cnc2ccccc2c1)c1ccnn1CCc1ccncc1
7. O=C(Nc1ccc(Cl)cc1)c1cc2ccccc2n1CCc1ccncc1

["< 5.00", "< 5.00", 5.78, "< 5.00", 7.02, 5.91, "< 5.00"]

Given the compound O=C(Nc1ccc(Cl)c(Cl)c1)c1ccnn1CCc1ccncc1 , what is its reported pIC50?
6.92
